- Tested on: indomethacin-induced gastric mucosa lesion
- test details: Inhibition of the indomethacin-induced gastric mucosa lesion, p.o.
- Assay type: in vivo
- reported conditions: Rattus norvegicus, po, rats, read-out: ID50 p.o. mg/kg, indomethacin-induced gastric mucosa lesion
Task for the reader: assign each of the following compounds its reported ED50.
Report as a plain number; the unit mg/kg is understood.

What ED50 appears in the records for this compound with indomethacin-induced gastric mucosa lesion? `CCCn1nnc(-c2cnc3c(C)cccn3c2=O)n1`
5.5

What ED50 appears in the records for this compound with indomethacin-induced gastric mucosa lesion? `C=CCn1nnc(-c2cnc3c(C)cccn3c2=O)n1`
2.5

What ED50 appears in the records for this compound with indomethacin-induced gastric mucosa lesion? `Cc1cccn2c(=O)c(-c3nnn(C(C)C)n3)cnc12`
2.6

What ED50 appears in the records for this compound with indomethacin-induced gastric mucosa lesion? `CC(C)n1nnc(-c2cnc3ccccn3c2=O)n1`
4
